The measurements presented in this section are drawn from PubChem BioAssay (NCATS).

# Test system: OV90
# assayMethodText: Primary qHTS to identify gynecologic anti-cancer compounds using libraries of approved drugs and bioactive compounds (AID 1345084); further: nearly all actives have a fitted effect of over 55% in size
# protocolConditions: Gynecologic cancer cell panel viability, ATPlite luminescence, 48 h; series mostly up to 57.5 µM
Results filed as inconclusive are left out. Activity calls are given as the source filed them. The call rests on the fitted dose curve; in most records, active means well fitted cell-killing curve with a large enough effect; inconclusive means small, poorly fitted or top-dose-only effect, or effect the other way; inactive means flat fitted curve, though single readings scatter.
Classes to choose from: 1.0 = active, 0.0 = inactive

Some entries whose results are on file:
O=C1NCN(c2ccccc2)C12CCN(CCCC(c1ccc(F)cc1)c1ccc(F)cc1)CC2
1.0
C[C@@H](O)[C@H]1C(=O)N2C(C(=O)O)=C(SCCN=CN)C[C@H]12
0.0

Asked: For this compound, state the assay outcome: c1cnc(N2CCN(Cc3ccc4c(c3)OCO4)CC2)nc1
Given back: 0.0

Asked: Would you kindly repeat that for OCCN1CCN(CC/C=C2/c3ccccc3Sc3ccc(C(F)(F)F)cc32)CC1 ?
Given back: 1.0

Asked: Would you kindly repeat that for CCN1CCc2nc(N)oc2CC1 ?
Given back: 0.0

Asked: Would you kindly repeat that for Cc1nc2ccccn2c(=O)c1CCN1CCC(C(=O)c2ccc(F)cc2)CC1 ?
Given back: 0.0

Asked: Would you kindly repeat that for CSc1ccc(C(=O)c2[nH]c(=O)[nH]c2C)cc1 ?
Given back: 0.0

Asked: Would you kindly repeat that for Cc1scc2c1N(C(=O)CN1CCN(C)CC1)c1ccccc1NC2=O ?
Given back: 0.0

Asked: Would you kindly repeat that for O=C(O)CP(=O)(O)O ?
Given back: 0.0

====

# System: C2A
# assayMethodText: qHTS profiling for inhibitors of Plasmodium falciparum proliferation (AID 504749); further: nearly all actives have a fitted effect of over 60% in size
# protocolConditions: P. falciparum in erythrocytes, SYBR Green DNA, 72 h; series mostly up to 28.7 µM
Inconclusive results are not listed. Calls of active or inactive are those of the source. The call rests on the fitted dose curve; in most records, active means well fitted inhibition curve with a large enough effect; inconclusive means small, poorly fitted or top-dose-only effect; inactive means flat fitted curve, though single readings scatter.
Classes to choose from: Yes (active), No (inactive)

Some entries whose results are on file:
CCCN(CCC)CCc1cccc2c1CC(=O)N2
No
O=C(O)CP(=O)(O)O
No
CCN(CC)CCNC(=O)c1cc(S(C)(=O)=O)ccc1OC
No

Asked: For this molecule, state the assay outcome: CCCCCN(CCCCC)C(=O)C(CCC(=O)O)NC(=O)c1ccc(Cl)c(Cl)c1 (stereo not drawn)
Given back: No

Asked: Would you kindly repeat that for C=CCc1ccccc1OCC(O)CNC(C)C (stereo not drawn) ?
Given back: No

Asked: Would you kindly repeat that for CN1CCN(CC(=O)N2c3ccccc3C(=O)Nc3cccnc32)CC1 ?
Given back: No

====

# System: CP266
# assayMethodText: qHTS profiling for inhibitors of Plasmodium falciparum proliferation (AID 504749); further: nearly all actives have a fitted effect of over 60% in size
# protocolConditions: P. falciparum in erythrocytes, SYBR Green DNA, 72 h; series mostly up to 28.7 µM
Results filed as inconclusive are left out. Activity calls are given as the source filed them. The call rests on the fitted dose curve; in most records, active means well fitted inhibition curve with a large enough effect; inconclusive means small, poorly fitted or top-dose-only effect; inactive means flat fitted curve, though single readings scatter.
Classes to choose from: active, inactive

CC(C)NNC(=O)c1ccncc1
inactive
CC(=O)OCC1=C(C(=O)O)N2C(=O)[C@@H](NC(=O)Cc3cccs3)[C@H]2SC1
inactive
COC(=O)C1=C(C)NC(C)=C(C(=O)OC(C)(C)CN(C)CCC(c2ccccc2)c2ccccc2)C1c1cccc([N+](=O)[O-])c1 (stereo unspecified)
active

Asked: For this compound, state the assay outcome: CCC(=O)c1ccc2c(c1)N(CCCN(C)C)c1ccccc1S2
Given back: inactive

Asked: Would you kindly repeat that for Nc1ncn([C@@H]2O[C@H](CO)[C@@H](O)[C@H]2O)c(=O)n1 ?
Given back: inactive

Asked: Would you kindly repeat that for CN(C)C/C=C(/c1ccc(Br)cc1)c1cccnc1 ?
Given back: inactive

Asked: Would you kindly repeat that for O=C(CCNNC(=O)c1ccncc1)NCc1ccccc1 ?
Given back: inactive

Asked: Would you kindly repeat that for CN(C)CC[C@@H](c1ccc(Br)cc1)c1ccccn1 ?
Given back: inactive

Asked: Would you kindly repeat that for CCNC(=O)N1CCN(CCCC(c2ccc(F)cc2)c2ccc(F)cc2)CC1 ?
Given back: active

Asked: Would you kindly repeat that for CCN(CC)CCOCCOC(=O)C1(c2ccccc2)CCCC1 ?
Given back: inactive

Asked: Would you kindly repeat that for CN=C(NC#N)NCCSCc1nc[nH]c1C ?
Given back: inactive

====

Catalogue of max response values
# System: HEK293
# assayMethodText: Cytotoxic Profiling of Annotated Libraries Using Quantitative High-Throughput Screening (AID 1296008); further: on the % scale 0 is the no-effect control and ±100 the full control effect; nearly all actives have a fitted effect of over 60% in size
# protocolConditions: Five cell lines viability, CellTiter-Glo ATP luminescence, 48-72 h; stronger effect = lower value
Results filed as inconclusive are left out.
The reply should contain only the number, in %.

The following compounds have reported results that may help.
CCCNC(C)C(=O)Nc1ccccc1C (stereo unspecified)
1.1
CCc1c(C)[nH]c2c1C(=O)C(CN1CCOCC1)CC2 (stereo unspecified)
-11.2
CCN(CC)CCNC(=O)c1cc(S(C)(=O)=O)ccc1OC
-8.18
C[N+](C)(C)CCOC(=O)CCC(=O)OCC[N+](C)(C)C
4.43
CCCCCN(CCCCC)C(=O)C(CCC(=O)O)NC(=O)c1ccc(Cl)c(Cl)c1 (stereo unspecified)
-9.3

Asked: Record lookup: for HEK293, what max response belongs to CO[C@@]1(NC(=O)CSCC#N)C(=O)N2C(C(=O)O)=C(CSc3nnnn3C)CS[C@@H]21 ?
Given back: -2.42

====

# assayMethodText: qHTS for differential inhibitors of proliferation of Plasmodium falciparum line HB3 (AID 1886);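 further: parasites grown with compound for 72 h before SYBR Green readout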
# protocolConditions: Plasmodium falciparum HB3 proliferation inhibition; series mostly up to 28.7 µM
Inconclusive results are not listed. Activity calls are given as the source filed them. Calls come from the whole dose curve; as a rule, active = well fitted curve in the direction sought with a large enough effect; inconclusive = small, poorly fitted or top-dose-only effect, or another doubt; inactive = no such curve, though single readings can be large or run the other way.
Classes to choose from: label 1 = active, label 0 = inactive

C=CCc1ccccc1OCC(O)CNC(C)C (centres undefined)
label 1
CN(C)CCCN1c2ccccc2Sc2ccccc21
label 1
NS(=O)(=O)c1cc2c(cc1Cl)NC(C1CC3C=CC1C3)NS2(=O)=O (centres undefined)
label 0
C(=C\c1ccccc1)/CN1CCN(C(c2ccccc2)c2ccccc2)CC1
label 1
c1cnc(N2CCN(Cc3ccc4c(c3)OCO4)CC2)nc1
label 0

Asked: For this compound, state the assay outcome: CCOC(=O)C1=C(C)NC(C)=C(C(=O)OC)C1c1cccc([N+](=O)[O-])c1 (centres undefined)
Given back: label 1

Asked: Would you kindly repeat that for CC(C)[N+](C)(CCOC(=O)C1c2ccccc2Oc2ccccc21)C(C)C ?
Given back: label 1

Asked: Would you kindly repeat that for COCCOC(=O)C1=C(C)NC(C)=C(C(=O)OC(C)C)C1c1cccc([N+](=O)[O-])c1 (centres undefined) ?
Given back: label 1

Asked: Would you kindly repeat that for CC(=O)Nc1nnc(S(N)(=O)=O)s1 ?
Given back: label 0

Asked: Would you kindly repeat that for CCN(CC)CC(=O)Nc1c(C)cccc1C ?
Given back: label 0

Asked: Would you kindly repeat that for CCCC(C(=O)OCCN(CC)CC)(c1ccccc1)c1ccccc1 ?
Given back: label 1

Asked: Would you kindly repeat that for NC/C=C/C(=O)O ?
Given back: label 0

Asked: Would you kindly repeat that for COc1cc(C(=O)OCCCN2CCCN(CCCOC(=O)c3cc(OC)c(OC)c(OC)c3)CC2)cc(OC)c1OC ?
Given back: label 1

====

# System: CP266
# assayMethodText: qHTS profiling for inhibitors of Plasmodium falciparum proliferation (AID 504749); further: nearly all actives have a fitted effect of over 60% in size; further: potency means the concentration at half of the fitted maximal effect
# protocolConditions: P. falciparum in erythrocytes, SYBR Green DNA, 72 h; series mostly up to 28.7 µM
Inconclusive results are not listed. Active and inactive are the calls of the source. The call rests on the fitted dose curve; in most records, active means well fitted inhibition curve with a large enough effect; inconclusive means small, poorly fitted or top-dose-only effect; inactive means flat fitted curve, though single readings scatter.
propertyMeasured: Potency

The following compounds have reported results that may help.
CCO/C([O-])=N/c1c[n+](N2CCOCC2)no1
inactive
COc1ccc([C@@H]2Sc3ccccc3N(CCN(C)C)C(=O)[C@@H]2OC(C)=O)cc1
inactive
CCCN1C[C@H](CSC)C[C@@H]2c3cccc4[nH]cc(c34)C[C@H]21
inactive
CCn1ccnc1CC1COc2ccccc2O1 (stereo not drawn)
inactive
CC(C(=O)O)c1ccc(CC2CCCC2=O)cc1 (stereo not drawn)
inactive
Cc1nnc(SCC2=C(C(=O)O)N3C(=O)[C@@H](NC(=O)Cn4cnnn4)[C@H]3SC2)s1
inactive
c1cnc(N2CCN(Cc3ccc4c(c3)OCO4)CC2)nc1
inactive
C=CCc1ccccc1OCC(O)CNC(C)C (stereo not drawn)
inactive
NC/C=C/C(=O)O
inactive
NC(=O)c1cn(Cc2c(F)cccc2F)nn1
inactive

Asked: Data request, read-out Potency, for CC(=O)Oc1cc(C(C)C)c(OCCN(C)C)cc1C
Given back: inactive

Asked: Would you kindly repeat that for C[N+](C)(C)CCOC(N)=O ?
Given back: inactive

Asked: Would you kindly repeat that for CCN1CCC[C@H]1CNC(=O)c1c(O)c(Cl)cc(Cl)c1OC ?
Given back: inactive

Asked: Would you kindly repeat that for CCOC(=O)C1=C(C)NC(C)=C(C(=O)OC)C1c1cccc(Cl)c1Cl (stereo not drawn) ?
Given back: inactive

Asked: Would you kindly repeat that for CCN(Cc1ccncc1)C(=O)C(CO)c1ccccc1 (stereo not drawn) ?
Given back: inactive

Asked: Would you kindly repeat that for COc1cc2c(cc1OC)-c1cc(=Nc3c(C)cc(C)cc3C)n(C)c(=O)n1CC2 ?
Given back: 6.75 µM (active)

Asked: Would you kindly repeat that for OC(CCN1CCCCC1)(c1ccccc1)C1CCCCC1 (stereo not drawn) ?
Given back: inactive

Asked: Would you kindly repeat that for CCOC(=O)C1=C(C)NC(C)=C(C(=O)OC)C1c1cccc([N+](=O)[O-])c1 (stereo not drawn) ?
Given back: inactive
